melting point values by entry

Here is how some compounds turned out for melting point.
compound: COc1ccc2cccc(C3CCN(Cc4cncc(-c5ccc(F)cc5)c4)CC3)c2n1 [Compound 3d]
readout: melting point
result: 156 to 158 °C
//
compound: O=c1ccc2cccc(C3CCN(Cc4cncc(C5=CCCC5)c4)CC3)c2[nH]1 [Compound 4f]
readout: melting point
result: 133 to 135 °C

Please turn your attention to the following entry.
I'd like to know its melting point. The compound in question is COc1ccc2cccc(C3CCN(Cc4cncc(-c5ccccc5)c4)CC3)c2n1 [Compound 3c] 135 to 137 °C

====

melting point values by entry

Here is how some compounds turned out for melting point.
smi: O=c1ccc2cccc(C3CCN(Cc4ccc(-c5ccc(F)cc5)cc4)CC3)c2[nH]1
result: 159 to 161 °C
//
smi: O=c1ccc2cccc(C3CCN(Cc4cccc(C5=CCCC5)c4)CC3)c2[nH]1
result: 123 to 125 °C

I'd like to know its melting point. The compound in question is "O=C1CCc2cccc(C3CCN(Cc4ccc(-c5ccccc5)cc4)CC3)c2N1" 116 to 118 °C

Please give the result for "O=C1CCc2cccc(C3CCN(Cc4cncc(-c5ccc(F)cc5)c4)CC3)c2N1" too. 136 to 138 °C

Please give the result for "O=C1CCc2cccc(C3CCN(Cc4cncc(C5=CCCC5)c4)CC3)c2N1" too. 123 to 125 °C

Please give the result for "O=C1CCc2cccc(C3CCN(Cc4cccc(C5=CCCC5)c4)CC3)c2N1" too. 115 to 117 °C

====

melting point values by entry

I'd like to know its melting point. The molecule in question is "COc1ccc2cccc(C3CCN(Cc4cccc(C5=CCCC5)c4)CC3)c2n1" 125 to 126 °C

Please give the result for "COc1ccc2cccc(C3CCN(Cc4ccc(-c5ccccc5)cc4)CC3)c2n1" too. 84 to 85 °C

Please give the result for "O=c1ccc2cccc(C3CCN(Cc4cncc(-c5ccccc5)c4)CC3)c2[nH]1" too. 158 to 160 °C

====

melting point values by entry

Here is how some compounds turned out for melting point.
smi: O=c1ccc2cccc(C3CCN(Cc4cncc(-c5ccc(F)cc5)c4)CC3)c2[nH]1
melting point: 161 to 163 °C
//
smi: O=C1CCc2cccc(C3CCN(Cc4ccc(-c5ccc(F)cc5)cc4)CC3)c2N1
melting point: 132 to 134 °C

I'd like to know its melting point. The compound in question is "O=c1ccc2cccc(C3CCN(Cc4ccc(-c5ccccc5)cc4)CC3)c2[nH]1" 146 to 148 °C
